System: PC-3
ASSAY TEXT: Alamar Blue viability assay
Format: cell-based
REPORTED CONDITIONS: Homo sapiens, Prostate, P53 Null, 96-hour exposure
Procedure: Cultures of HeLa cells were exposed for 96 hours to different concentrations of IHSF 001, 058 and 115, and viability was assessed using an Alamar Blue assay. It is noted that this standard assay examines attached cells only. This subject will be discussed in more detail below. […] The relative cytotoxicity of the compounds appears to parallel their respective activities as inhibitors of HSF1 function (inhibition of RLuc expression in Z74 cells). […]
pEC50: −log10 of the molar value.

{"columns": ["COMPOUND STRING", "pEC50"],
 "data": [
  ["CN(C(=O)/C=C/C1=NCCCO1)c1ncc(-c2cccnc2)s1", 5.40]
]}
